Biological target: Torsin-1A (Homo sapiens) (UniProt O14656)
Sequence (O14656 whole entry, looked up): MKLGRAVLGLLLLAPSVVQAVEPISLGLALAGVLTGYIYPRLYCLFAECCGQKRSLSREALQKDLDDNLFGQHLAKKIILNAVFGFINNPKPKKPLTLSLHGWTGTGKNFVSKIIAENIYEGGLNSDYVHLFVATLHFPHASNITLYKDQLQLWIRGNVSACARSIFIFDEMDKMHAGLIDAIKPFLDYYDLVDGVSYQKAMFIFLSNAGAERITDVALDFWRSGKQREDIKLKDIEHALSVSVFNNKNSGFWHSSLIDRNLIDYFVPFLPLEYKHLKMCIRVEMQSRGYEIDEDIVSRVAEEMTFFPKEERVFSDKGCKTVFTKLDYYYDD
Assay: torsin A binders from cell lysate, primary screen, small-molecule microarray, wild-type, 635/667 nm (AID 1149)
Settings: COS7 hTOR1A-WT lysate, 635 nm fluorescence, higher = more signal
The reader will find reported composite z-score values listed item by item below.

Use the examples below as a reference point.
>  <item.smiles>
Cc1ccc(S[C@]2(C(=O)NCC(F)(F)F)CC(=O)N(C3CCCCC3)[C@@H]2c2ccc(CO)cc2)cc1

>  <composite z-score>
0.118

$$$$
>  <item.smiles>
C#CCN=C(N)N

>  <composite z-score>
1.7

$$$$
>  <item.smiles>
CCCC=C(CCC)[C@@H](NS(=O)(=O)c1ccc(Cl)cc1)c1ccccc1

>  <composite z-score>
-0.721

$$$$

Form field composite z-score, entry `CCOC(=O)C[C@H]1[C@H](OC(=O)c2ccc(C(=O)c3ccccc3)cc2)[C@@H](NC(=O)c2ccc3ccccc3c2)c2cc(OCCCO)ccc2N1C(=O)c1ccc2ccccc2n1` : 0.182

Form field composite z-score, entry `COC(=O)[C@@]1(Cc2ccccc2CN=[N+]=[N-])COC(c2ccc(OCCCO)cc2)=N1` : -3.23

Form field composite z-score, entry `COC(=O)[C@]1(CO)N=C(c2ccc(OCCCO)cc2)O[C@@H]1c1ccccc1CN=[N+]=[N-]` : -0.208

Form field composite z-score, entry `CC(C)CNC(=O)[C@@H]1c2ccccc2C(=O)N(CC23CC4CC(CC(C4)C2)C3)[C@H]1c1ccc(CO)cc1` : -0.218

Form field composite z-score, entry `COc1ccc(CCNC(=O)[C@@]2(Sc3ccc(C)cc3)CC(=O)N(Cc3cc(C(F)(F)F)cc(C(F)(F)F)c3)[C@@H]2c2ccc(CO)cc2)cc1` : -1.43

---

Biological target: Follistatin (Homo sapiens) (UniProt P19883)
Sequence (P19883 whole entry, looked up): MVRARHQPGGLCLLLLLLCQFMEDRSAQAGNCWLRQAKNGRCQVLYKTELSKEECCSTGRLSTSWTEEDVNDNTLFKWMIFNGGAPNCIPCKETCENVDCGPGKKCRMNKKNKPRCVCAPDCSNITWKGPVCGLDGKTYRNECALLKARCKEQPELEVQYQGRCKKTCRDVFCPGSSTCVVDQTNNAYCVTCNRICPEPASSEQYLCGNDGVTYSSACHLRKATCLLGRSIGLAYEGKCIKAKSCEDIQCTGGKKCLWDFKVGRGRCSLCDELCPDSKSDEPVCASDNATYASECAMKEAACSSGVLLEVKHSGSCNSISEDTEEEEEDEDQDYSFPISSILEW
Experiment: follistatin binders on small-molecule microarrays, primary screen, biochemical, small-molecule microarray, 635/667 nm fluorescence (AID 1132)
Conditions: FST binding, 635 nm fluorescence, higher = more signal
The reader will find reported composite z-score values listed item by item below.
Note: the reply should be a number with no unit written.

>  <compound>
COCCOC(=O)N1C(=O)[C@@]2(c3cc(C#CCNC(N)=O)ccc31)[C@H](C(=O)NC[C@H](O)c1ccccc1)[C@H]1C(=O)O[C@H](c3ccccc3)[C@H](c3ccccc3)N1[C@@H]2c1ccc(OCCO)cc1

>  <composite z-score>
1.18

$$$$

Form field composite z-score, entry COc1ccc(NN2C(C(O)c3cc(C(F)(F)F)cc(C(F)(F)F)c3)C=CC3C(=O)N(C4CCCCC4)C(=O)C32)cc1 (configuration not stated) : 0.544

Form field composite z-score, entry `Cc1ccc(S[C@]2(C(=O)NCC(F)(F)F)CC(=O)N(C3CCCCC3)[C@@H]2c2ccc(CO)cc2)cc1` : -0.16

Form field composite z-score, entry CCN(CC)c1ccc(N2CC=CC34O[C@@H]5C=CCOC(=O)[C@@H]5[C@H]3C(=O)N(CCO)[C@@H]4C2=O)cc1 (some centres not stated) : -0.721

Form field composite z-score, entry `CCOC(=O)C[C@H]1[C@H](OC(=O)c2ccc(-c3ccccc3)cc2)[C@@H](NC(=O)CC(C)C)c2cc(OCCCO)ccc2N1C(=O)Cc1ccc(OC)cc1` : -0.195

Form field composite z-score, entry `CN(C)CCCNC(=O)[C@@]1(Cc2ccccc2I)c2ccccc2C(=O)N(Cc2ccccc2)[C@H]1c1ccc(CO)cc1` : 1.28

Form field composite z-score, entry `O=C(NCCO)C1=C[C@H](Oc2ccccc2I)[C@@H](O)[C@H](NCc2ccc(F)cc2)C1` : 1.31
